Where do these numbers come from? They come from patent US20240279318A1.

Would you mind telling me the reported Affinity increase of each entry?
Target: T1, AFP158/HLA-A*02:01 complex (human)
T1 construct: biotinylated on the BSP by BirA for ELISA and panning; also called biotinylated AFP158/HLA-A*02:01 complex; Bio-AFP158
Assay: SPR; vs AS170036 VL1VH1;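 also: crude scFv captured on sensor chip, peptide–HLA complex flowed over at several concentrations, KD estimated from association and dissociation kinetic rates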
Expressed in fold, but write only the number.

Enquiry: Record request: Affinity increase value, item AS170036 VL1VH1-VHG108M (scFv) scFv: QSALTQPRSVSGSPGQSVTISCAGTSSDVGSENYVSWYQQHPGKAPKLMIYQVNKRASGVPDRFSGSKSGNTASLTISGLQAEDEADYYCASYRSSDHNIVFGGGTKLTVLGGGGSGGGGSGGGGSEVQLVESGGGLVQPGGSLRLSCAASGFTFSSYAMSWVRQAPGKGLEWVSTINSGTGSPYYADSVKGRFTISRDNSKNTLYLQMNSLRAEDTAVYYCAKNFFDGSWFLMPPAMDYWGQGTLVTVSSHHHHHH
Return: 4.7

Enquiry: Record request: Affinity increase value, item AS170036 VL1VH1 HG56R (scFv) scFv: QSALTQPRSVSGSPGQSVTISCAGTSSDVGSENYVSWYQQHPGKAPKLMIYQVNKRASGVPDRFSGSKSGNTASLTISGLQAEDEADYYCASYRSSDHNIVFGGGTKLTVLGGGGSGGGGSGGGGSEVQLVESGGGLVQPGGSLRLSCAASGFTFSSYAMSWVRQAPGKGLEWVSTINSGTRSPYYADSVKGRFTISRDNSKNTLYLQMNSLRAEDTAVYYCAKNFFDGSWFLGPPAMDYWGQGTLVTVSSHHHHHH
Return: 0.8

Enquiry: Record request: Affinity increase value, item AS170036 VL1VH1 HG108W (scFv) scFv: QSALTQPRSVSGSPGQSVTISCAGTSSDVGSENYVSWYQQHPGKAPKLMIYQVNKRASGVPDRFSGSKSGNTASLTISGLQAEDEADYYCASYRSSDHNIVFGGGTKLTVLGGGGSGGGGSGGGGSEVQLVESGGGLVQPGGSLRLSCAASGFTFSSYAMSWVRQAPGKGLEWVSTINSGTGSPYYADSVKGRFTISRDNSKNTLYLQMNSLRAEDTAVYYCAKNFFDGSWFLWPPAMDYWGQGTLVTVSSHHHHHH
Return: 0.1
